system: KB cells; experiment: In vitro assay, cell growth inhibition (KB cells); format: cell-based; settings: 72 hours, concentration to inhibit growth of cells by 50%
pIC50: −log10 of the molar value.
metric name: pIC50

a: [Cl-].[Cl-].c1cc[n+]2c(c1)-c1cccc[n+]1[Pt-2]21[NH2+]CC[NH+]1Cc1c2ccccc2cc2ccccc12 [Example 4, [Pt(bpy)(Aten)]Cl2]
b: [Cl-].[Cl-].c1cc[n+]2c(c1)-c1cccc[n+]1[Pd-2]21[NH2+]CC[NH+]1Cc1c2ccccc2cc2ccccc12 [Example 5, [Pd(bpy)(Aten)]Cl2]
Please indicate which entry, a or b , has the lower recorded pIC50 value. Answer = label. a
(a: 4.01, b: 4.44)

---

system: SNB-78; experiment: Cell growth inhibition, brain cancer cell line SNB-78; type: cell-based; conditions: SNB-78, brain cancer cell line
metric name: log10 IC50 (M)

{"compound": "[Cl-].[Cl-].c1cc[n+]2c(c1)-c1cccc[n+]1[Pt-2]21[NH2+]CC[NH+]1Cc1c2ccccc2cc2ccccc12 [Example 4, [Pt(bpy)(Aten)]Cl2]", "log10 IC50 (M)": -4.56}
{"compound": "[Cl-].[Cl-].c1cc[n+]2c(c1)-c1cccc[n+]1[Pt-2]21[NH2+]CCC[NH+]1Cc1c2ccccc2cc2ccccc12", "log10 IC50 (M)": -5.54}
{"compound": "N.N.O.O.O.O.O.O.O.O=P([O-])([O-])OC1C(OP(=O)([O-])[O-])C(OP(=O)([O-])[O-])C(OP(=O)([O-])[O][Pt+])C(OP(=O)([O-])[O-])C1OP(=O)([O-])[O-].[Na+].[Na+].[Na+].[Na+].[Na+].[Na+].[Na+].[Na+].[Na+].[Na+] (stereo not shown) [Example 9, Pt(NH3)—IP6 Pt(NH3)2.IP6.10Na.7H2O]", "log10 IC50 (M)": -4.29}
{"compound": "[Cl-].[Cl-].c1cc[n+]2c(c1)-c1cccc[n+]1[Pd-2]21[NH2+]CC[NH+]1Cc1c2ccccc2cc2ccccc12 [Example 5, [Pd(bpy)(Aten)]Cl2]", "log10 IC50 (M)": -4.67}

---

tested on: NCI-H460; assay: Cell growth inhibition, lung cancer cell line NCI-H460; format: cell-based
metric name: log10 IC50 (M)

{"compound": "[Cl-].[Cl-].c1cc[n+]2c(c1)-c1cccc[n+]1[Pd-2]21[NH2+]CC[NH+]1Cc1c2ccccc2cc2ccccc12 [Example 5, [Pd(bpy)(Aten)]Cl2]", "metric name": "log10 IC50 (M)", "numeric value": -5.86}
{"compound": "[Cl-].[Cl-].c1cc[n+]2c(c1)-c1cccc[n+]1[Pt-2]21[NH2+]CCC[NH+]1Cc1c2ccccc2cc2ccccc12 [Example 7, Pt(bpy)(AtC3)]", "metric name": "log10 IC50 (M)", "numeric value": -5.71}
{"compound": "[Cl-].[Cl-].c1cc[n+]2c(c1)-c1cccc[n+]1[Pt-2]21[NH2+]CC[NH+]1Cc1c2ccccc2cc2ccccc12 [Example 4, [Pt(bpy)(Aten)]Cl2]", "metric name": "log10 IC50 (M)", "numeric value": -5.23}
{"compound": "N.N.O.O.O.O.O.O.O.O=P([O-])([O-])OC1C(OP(=O)([O-])[O-])C(OP(=O)([O-])[O-])C(OP(=O)([O-])[O][Pt+])C(OP(=O)([O-])[O-])C1OP(=O)([O-])[O-].[Na+].[Na+].[Na+].[Na+].[Na+].[Na+].[Na+].[Na+].[Na+].[Na+] (stereo not shown) [Example 9, Pt(NH3)—IP6 Pt(NH3)2.IP6.10Na.7H2O]", "metric name": "log10 IC50 (M)", "numeric value": -4.46}

---

test system: all cell types (cancer cell lines of Tables 4-12); test: Cell growth inhibition, mean over all cell types of the panel; format: cell-based; conditions: mean over all cell lines of Tables 4-12
metric name: log10 IC50 (M)

{"compound": "[Cl-].[Cl-].c1cc[n+]2c(c1)-c1cccc[n+]1[Pt-2]21[NH2+]CCC[NH+]1Cc1c2ccccc2cc2ccccc12", "metric name": "log10 IC50 (M)", "numeric value": -5.68}
{"compound": "[Cl-].[Cl-].c1cc[n+]2c(c1)-c1cccc[n+]1[Pd-2]21[NH2+]CC[NH+]1Cc1c2ccccc2cc2ccccc12 [Example 5, [Pd(bpy)(Aten)]Cl2]", "metric name": "log10 IC50 (M)", "numeric value": -5.18}
{"compound": "[Cl-].[Cl-].c1cc[n+]2c(c1)-c1cccc[n+]1[Pt-2]21[NH2+]CC[NH+]1Cc1c2ccccc2cc2ccccc12 [Example 4, [Pt(bpy)(Aten)]Cl2]", "metric name": "log10 IC50 (M)", "numeric value": -4.54}
{"compound": "N.N.O.O.O.O.O.O.O.O=P([O-])([O-])OC1C(OP(=O)([O-])[O-])C(OP(=O)([O-])[O-])C(OP(=O)([O-])[O][Pt+])C(OP(=O)([O-])[O-])C1OP(=O)([O-])[O-].[Na+].[Na+].[Na+].[Na+].[Na+].[Na+].[Na+].[Na+].[Na+].[Na+] (stereo not shown) [Example 9, Pt(NH3)—IP6 Pt(NH3)2.IP6.10Na.7H2O]", "metric name": "log10 IC50 (M)", "numeric value": -4.38}

---

system: DMS114; test: Cell growth inhibition, lung cancer cell line DMS114; assay type: cell-based
metric name: log10 IC50 (M)

{"compound": "[Cl-].[Cl-].c1cc[n+]2c(c1)-c1cccc[n+]1[Pt-2]21[NH2+]CCC[NH+]1Cc1c2ccccc2cc2ccccc12", "log10 IC50 (M)": -5.76}
{"compound": "[Cl-].[Cl-].c1cc[n+]2c(c1)-c1cccc[n+]1[Pt-2]21[NH2+]CC[NH+]1Cc1c2ccccc2cc2ccccc12 [Example 4, [Pt(bpy)(Aten)]Cl2]", "log10 IC50 (M)": -4.89}
{"compound": "[Cl-].[Cl-].c1cc[n+]2c(c1)-c1cccc[n+]1[Pd-2]21[NH2+]CC[NH+]1Cc1c2ccccc2cc2ccccc12 [Example 5, [Pd(bpy)(Aten)]Cl2]", "log10 IC50 (M)": -5.28}
{"compound": "N.N.O.O.O.O.O.O.O.O=P([O-])([O-])OC1C(OP(=O)([O-])[O-])C(OP(=O)([O-])[O-])C(OP(=O)([O-])[O][Pt+])C(OP(=O)([O-])[O-])C1OP(=O)([O-])[O-].[Na+].[Na+].[Na+].[Na+].[Na+].[Na+].[Na+].[Na+].[Na+].[Na+] (stereo not shown) [Example 9, Pt(NH3)—IP6 Pt(NH3)2.IP6.10Na.7H2O]", "log10 IC50 (M)": -4.72}

---

tested on: MDA-MB-231; experiment: Cell growth inhibition, breast cancer cell line MDA-MB-231; assay type: cell-based; settings: MDA-MB-231, breast cancer cell line
metric name: log10 IC50 (M)

{"compound": "[Cl-].[Cl-].c1cc[n+]2c(c1)-c1cccc[n+]1[Pd-2]21[NH2+]CC[NH+]1Cc1c2ccccc2cc2ccccc12 [Example 5, [Pd(bpy)(Aten)]Cl2]", "tgt": "MDA-MB-231", "numeric value": -5.29}
{"compound": "N.N.O.O.O.O.O.O.O.O=P([O-])([O-])OC1C(OP(=O)([O-])[O-])C(OP(=O)([O-])[O-])C(OP(=O)([O-])[O][Pt+])C(OP(=O)([O-])[O-])C1OP(=O)([O-])[O-].[Na+].[Na+].[Na+].[Na+].[Na+].[Na+].[Na+].[Na+].[Na+].[Na+] (stereo not shown) [Example 9, Pt(NH3)—IP6 Pt(NH3)2.IP6.10Na.7H2O]", "tgt": "MDA-MB-231", "numeric value": -4.06}
{"compound": "[Cl-].[Cl-].c1cc[n+]2c(c1)-c1cccc[n+]1[Pt-2]21[NH2+]CC[NH+]1Cc1c2ccccc2cc2ccccc12 [Example 4, [Pt(bpy)(Aten)]Cl2]", "tgt": "MDA-MB-231", "numeric value": -4.5}
{"compound": "[Cl-].[Cl-].c1cc[n+]2c(c1)-c1cccc[n+]1[Pt-2]21[NH2+]CCC[NH+]1Cc1c2ccccc2cc2ccccc12 [Example 7, Pt(bpy)(AtC3)]", "tgt": "MDA-MB-231", "numeric value": -5.78}

---

tested on: BSY-1; assay: Cell growth inhibition, breast cancer cell line BSY-1; type: cell-based; details: BSY-1, breast cancer cell line
metric name: log10 IC50 (M)

{"compound": "[Cl-].[Cl-].c1cc[n+]2c(c1)-c1cccc[n+]1[Pt-2]21[NH2+]CCC[NH+]1Cc1c2ccccc2cc2ccccc12", "metric name": "log10 IC50 (M)", "numeric value": -5.89}
{"compound": "[Cl-].[Cl-].c1cc[n+]2c(c1)-c1cccc[n+]1[Pd-2]21[NH2+]CC[NH+]1Cc1c2ccccc2cc2ccccc12 [Example 5, [Pd(bpy)(Aten)]Cl2]", "metric name": "log10 IC50 (M)", "numeric value": -5.34}
{"compound": "N.N.O.O.O.O.O.O.O.O=P([O-])([O-])OC1C(OP(=O)([O-])[O-])C(OP(=O)([O-])[O-])C(OP(=O)([O-])[O][Pt+])C(OP(=O)([O-])[O-])C1OP(=O)([O-])[O-].[Na+].[Na+].[Na+].[Na+].[Na+].[Na+].[Na+].[Na+].[Na+].[Na+] (stereo not shown) [Example 9, Pt(NH3)—IP6 Pt(NH3)2.IP6.10Na.7H2O]", "metric name": "log10 IC50 (M)", "numeric value": -4.71}
{"compound": "[Cl-].[Cl-].c1cc[n+]2c(c1)-c1cccc[n+]1[Pt-2]21[NH2+]CC[NH+]1Cc1c2ccccc2cc2ccccc12 [Example 4, [Pt(bpy)(Aten)]Cl2]", "metric name": "log10 IC50 (M)", "numeric value": -4.89}

Origin of measurements: patent US7342122B2
